measurement_conditions: 308.15 K; 40000 kPa; Liquid; Vibrating tube method
recorded_metric: mass density (kg/m3)

>  <smi>
Cc1ccc(C)s1

>  <readout_number>
1000.28

$$$$
>  <smi>
c1ccsc1

>  <readout_number>
1078.99

$$$$
>  <smi>
Cc1cccs1

>  <readout_number>
1034.78

$$$$
>  <smi>
Cc1ccsc1

>  <readout_number>
1035.59

$$$$

====

measurement_conditions: 313.15 K; 100 kPa; Liquid; Vibrating tube method
recorded_metric: mass density (kg/m3)

>  <compound>
Cc1cccs1 [2-methylthiophene]

>  <recorded_metric>
mass density

>  <readout_number>
998.5

$$$$
>  <compound>
Cc1ccc(C)s1 [2,5-dimethylthiophene]

>  <recorded_metric>
mass density

>  <readout_number>
964.84

$$$$
>  <compound>
Cc1ccsc1 [3-methylthiophene]

>  <recorded_metric>
mass density

>  <readout_number>
1000.05

$$$$
>  <compound>
c1ccsc1 [thiophene]

>  <recorded_metric>
mass density

>  <readout_number>
1040.68

$$$$

====

measurement_conditions: 283.15 K; 20000 kPa; Liquid; Vibrating tube method
recorded_metric: mass density (kg/m3)

>  <compound>
c1ccsc1 [thiophene]

>  <measurement_units>
kg/m3

>  <mass density>
1091.37

$$$$
>  <compound>
Cc1ccc(C)s1 [2,5-dimethylthiophene]

>  <measurement_units>
kg/m3

>  <mass density>
1009.74

$$$$
>  <compound>
Cc1ccsc1 [3-methylthiophene]

>  <measurement_units>
kg/m3

>  <mass density>
1045.93

$$$$
>  <compound>
Cc1cccs1 [2-methylthiophene]

>  <measurement_units>
kg/m3

>  <mass density>
1045.36

$$$$

====

measurement_conditions: 298.15 K; 45000 kPa; Liquid; Vibrating tube method
recorded_metric: mass density (kg/m3)

>  <smi>
c1ccsc1

>  <measurement_units>
kg/m3

>  <mass density>
1092.53

$$$$
>  <smi>
Cc1ccc(C)s1

>  <measurement_units>
kg/m3

>  <mass density>
1012.17

$$$$
>  <smi>
Cc1cccs1

>  <measurement_units>
kg/m3

>  <mass density>
1047.25

$$$$
>  <smi>
Cc1ccsc1

>  <measurement_units>
kg/m3

>  <mass density>
1047.82

$$$$

====

measurement_conditions: 338.15 K; 35000 kPa; Liquid; Vibrating tube method
recorded_metric: mass density (kg/m3)

>  <molecule>
Cc1ccc(C)s1 [2,5-dimethylthiophene]

>  <mass density (kg/m3)>
970.46

$$$$
>  <molecule>
Cc1cccs1 [2-methylthiophene]

>  <mass density (kg/m3)>
1003.09

$$$$
>  <molecule>
Cc1ccsc1 [3-methylthiophene]

>  <mass density (kg/m3)>
1004.49

$$$$
>  <molecule>
c1ccsc1 [thiophene]

>  <mass density (kg/m3)>
1044.17

$$$$

====

measurement_conditions: 298.15 K; 55000 kPa; Liquid; Vibrating tube method
recorded_metric: mass density (kg/m3)

>  <smi>
Cc1ccsc1

>  <measurement_units>
kg/m3

>  <readout_number>
1053.78

$$$$
>  <smi>
Cc1cccs1

>  <measurement_units>
kg/m3

>  <readout_number>
1053.31

$$$$
>  <smi>
Cc1ccc(C)s1

>  <measurement_units>
kg/m3

>  <readout_number>
1018.14

$$$$
>  <smi>
c1ccsc1

>  <measurement_units>
kg/m3

>  <readout_number>
1098.86

$$$$
